Multiple publications report log10 of IC50 for Epidermal growth factor receptor (Homo sapiens, UniProt P00533); what follows is a combined list.
Answers are given as log10 of IC50 in nM.

CC(C)(/C=C(/C#N)C(=O)N1CCC[C@@H]1Cn1nc(-c2ccc(Oc3ccccc3)cc2F)c2c(N)ncnc21)N1CCOCC1 : 3.48
COc1cc(Nc2nccc(-c3ccc(NCCN)nc3)n2)cc(OC)c1OC : 3.71
C=C(CN(C)C)C(=O)Nc1cc2c(Nc3ccc(F)c(Cl)c3)c(C#N)cnc2cc1OCC : 2.75
COC(=O)c1ccccc1SCC(CN(C)C)C(=O)c1ccc(OCc2ccccc2)cc1 (stereo not given) : 3.94
COc1cc2ncnc(Nc3ccc(F)c(Cl)c3)c2cc1OCC(O)Cn1ccnc1 (stereo not given) : 0.90

For every listed record, write down its log10 of IC50.
1. CN(C)CCN1Cc2cc3c(Nc4cccc(Br)c4)ncnc3cc21
2. COc1cc2c(Nc3ccc(OCc4cccc(F)c4)c(Cl)c3)ncnc2cc1OCCCCCn1ccnc1[N+](=O)[O-]
3. CN(C)CCOc1ccc(Nc2ncc3nc(Sc4ccc(F)cc4)n(C4CCOCC4)c3n2)cc1
4. Nc1ncnc2c1ncn2CC(=O)c1ccccn1

1.61
1.22
0.40
4.95

====

Multiple publications report pIC50 for Epidermal growth factor receptor (Homo sapiens); what follows is a combined list.
Numbers only, as −log10 of the molar value.

Some solved cases for reference:
Cc1nnc2n1N=C(c1ccccc1OCCNCCCNCCOc1ccccc1C1=Nn3c(C)nnc3SC1)CS2 : 7.19
O=C(Nc1ccc(C(F)(F)F)cc1)Nc1ncnc2nn3ccccc3c12 : 5.00
CC(C)(C)c1cc(NC(=O)CN2CCN(c3ccccc3)CC2)no1 : 7.18
CCOc1cc2ncnc(/C=C/c3ccccc3)c2cc1OCC : 7.82
COc1cc(N2CCC(N)CC2)ccc1Nc1ncc(C(=O)OC(C)C)c(-c2cn(C)c3ccccc23)n1 : 9.46
CNS(=O)(=O)c1ccc(Nc2nc(Cl)nc3cc(OC)c(OC)cc23)cc1 : 5.79
Nc1ccc2ncnc(Nc3ccccc3)c2c1 : 6.11
COC(=O)C1CCN(Cc2ccn3ncnc(Nc4ccc5c(cnn5Cc5cccc(F)c5)c4)c23)CC1 : 6.00
COc1cc(Nc2ncnc3cc(-c4ccc(Cl)cc4)sc23)cc(OC)c1OC : 6.56
Cc1cc2cc(Nc3ccnc4cc(-c5ccc(CNCCCO)cc5)sc34)ccc2[nH]1 : 6.30

For every listed record, write down its pIC50.
1. C(=C\c1ccccc1)/C(=N/Nc1nncc2ccccc12)c1ccccc1
2. NC(=O)Nc1ccc2ncnc(Nc3ccc(Oc4cccc(C(F)(F)F)c4)c(Cl)c3)c2c1
3. CCN(CC)[C@@](C)(C#Cc1ncnc2cc(OC)c(OC)cc12)CCc1ccccc1
4. NC(=O)Nc1ccc(C(=O)Nc2ccc3ncnc(Nc4ccc(F)c(Cl)c4)c3c2)cc1
5. CCN=C(S)NNc1nncc2ccccc12
6. CS(=O)(=O)CCNC(CS(C)(=O)=O)c1ccc(-c2ccc3ncnc(Nc4ccc(OCc5cccc(F)c5)c(Cl)c4)c3c2)o1 (racemic)

8.25
8.40
5.92
8.05
7.12
7.54

====

Multiple publications report log10 of IC50 for UniProtKB P00533; what follows is a combined list.
Answers are given as log10 of IC50 in nM.

Some solved cases for reference:
C=CC(=O)NC1=NC=C2N=CN=C(Nc3ccc(F)c(Cl)c3)C21 (stereo not given) : -0.11
COc1cc2ncnc(Nc3ccc(F)c(Cl)c3)c2cc1B1OC(C)(C)C(C)(C)O1 : 2.72
CN(C)c1ccc2ncnc(Nc3cccc(Br)c3)c2c1 : 1.92
CCCCN(Cc1cccc(Br)c1O)C(=S)Nc1ccccc1 : 4.34
COc1cc2c(Oc3ccc(NC(=O)c4cc(-c5ccc(C)cc5)ccn4)cc3F)ccnc2cc1OCCCN1CCN(C)CC1 : 1.95

For every listed record, write down its log10 of IC50.
1. CCN(CC)[C@@](C)(CCc1ncnc2cc(OC)c(OC)cc12)Cc1ccccc1
2. COC(=O)COCc1ccn2ncnc(Nc3ccc4c(cnn4Cc4cccc(F)c4)c3)c12
3. CCc1c(C(=O)NC(CO)Cc2ccccc2)[nH]c2ccc(C(F)(F)F)cc12 (stereo not given)

[2.11, 2.66, 2.95]
